- experimental.details: qHTS assay to identify small molecule antagonists of the retinoid acid receptor (RAR) signaling pathway - cell viability counter screen (AID 1159551); note: nearly all actives have a fitted effect of over 35% in size
- condition.notes: C3RL4 cells viability, ATP luminescence (CellTiter-Glo), 6 h; series mostly up to 92.4 µM
Results filed as inconclusive are left out. Activity calls are given as the source filed them. Calls come from the whole dose curve; as a rule, active = well fitted cell-killing curve with a large enough effect in the repeat runs; inconclusive = weak or mixed curves, or effect the other way; inactive = flat fitted curve, though single readings scatter.
Outcome codes: active, inactive

compound="Cc1c(C)c2c(c(C)c1O)CCC(C)(COc1ccc(CC3SC(=O)NC3=O)cc1)O2 (stereo not given)" label_value=inactive
compound=CCC(CN)=C(c1ccccc1)c1ccccc1 label_value=inactive
compound=CN(C)[C@@H]1C(=O)C(C(N)=O)=C(O)[C@@]2(O)C(=O)C3=C(O)c4c(O)ccc(Cl)c4[C@@H](O)[C@H]3C[C@@H]12 label_value=inactive
compound=CCCCc1oc2ccc(NS(C)(=O)=O)cc2c1C(=O)c1ccc(OCCCN(CCCC)CCCC)cc1 label_value=active
compound=Fc1ccc(C(c2ccc(F)cc2)N2CCN(C/C=C/c3ccccc3)CC2)cc1 label_value=inactive
compound=CCCCCCCCOC(=O)c1ccc(O)cc1 label_value=inactive
compound=CC[C@@]1(O)C(=O)OCc2c1cc1n(c2=O)Cc2c-1nc1ccccc1c2/C=N/OC(C)(C)C label_value=inactive
compound=O=[N+]([O-])c1cc(Cl)c(Cl)c(Cl)c1Cl label_value=inactive
compound=CCCCCOc1ccccc1/C(=C\SC)n1ccnc1 label_value=inactive
compound=CCCCCCCCn1sc(Cl)c(Cl)c1=O label_value=active
